Documented Emax across a set of compounds
Target: human AMPK α1β1γ1 enzyme (Homo sapiens, UniProt Q13131+Q9Y478)
Construct: purchased Carna Biosciences, Inc
Sequence (Q13131 10-559 limits assumed): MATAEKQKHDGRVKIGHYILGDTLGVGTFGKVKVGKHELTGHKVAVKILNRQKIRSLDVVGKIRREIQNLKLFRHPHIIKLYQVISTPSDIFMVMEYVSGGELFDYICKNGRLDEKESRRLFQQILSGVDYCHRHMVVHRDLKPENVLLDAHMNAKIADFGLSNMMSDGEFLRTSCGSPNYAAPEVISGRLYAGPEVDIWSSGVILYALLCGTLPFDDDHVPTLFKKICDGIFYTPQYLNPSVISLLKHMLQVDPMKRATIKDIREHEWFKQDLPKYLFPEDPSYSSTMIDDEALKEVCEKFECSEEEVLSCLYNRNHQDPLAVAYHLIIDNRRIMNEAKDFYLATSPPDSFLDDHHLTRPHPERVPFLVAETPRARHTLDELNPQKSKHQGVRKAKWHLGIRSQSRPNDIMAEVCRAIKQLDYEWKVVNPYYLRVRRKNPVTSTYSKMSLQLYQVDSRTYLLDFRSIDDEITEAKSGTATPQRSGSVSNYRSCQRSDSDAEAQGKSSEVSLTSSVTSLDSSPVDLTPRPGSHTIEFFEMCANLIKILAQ
Sequence (Q9Y478 whole entry): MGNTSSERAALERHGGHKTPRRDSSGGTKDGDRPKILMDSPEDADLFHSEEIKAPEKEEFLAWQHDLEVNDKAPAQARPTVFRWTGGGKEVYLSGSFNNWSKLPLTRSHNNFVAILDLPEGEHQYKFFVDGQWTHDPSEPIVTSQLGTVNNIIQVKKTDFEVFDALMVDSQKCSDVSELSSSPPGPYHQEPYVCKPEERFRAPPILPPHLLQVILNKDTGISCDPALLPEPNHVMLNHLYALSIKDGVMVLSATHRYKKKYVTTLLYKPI
Sequence (P54619 whole entry partner): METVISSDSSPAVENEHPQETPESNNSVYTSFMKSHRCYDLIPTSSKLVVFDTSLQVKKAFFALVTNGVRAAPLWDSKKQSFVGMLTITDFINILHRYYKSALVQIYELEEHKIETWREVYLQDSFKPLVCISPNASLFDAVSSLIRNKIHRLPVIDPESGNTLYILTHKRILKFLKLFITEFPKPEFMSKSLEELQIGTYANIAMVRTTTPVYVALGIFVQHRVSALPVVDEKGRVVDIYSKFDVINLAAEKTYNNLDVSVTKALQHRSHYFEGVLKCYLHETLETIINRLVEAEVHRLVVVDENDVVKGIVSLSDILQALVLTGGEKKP
Test: Evaluation of AMPK activator, Test Example 1 (mobility-shift kinase assay, FL-Peptide 7)
Format: biochemical
Conditions: human AMPK α1β1γ1, relative to control (100%); read-out: Emax (maximum rate of increase in activity within the measurement range)
Give the quantity in %, number only.

Before answering, review these 5 worked examples.
compound	target_or_system	value_unit	readout_value
CC(C)(C(=O)O)[C@H]1CC[C@H](Oc2nc3nc(-c4ccc(-c5ccc(C(=O)N6CCOCC6)cc5)cc4)c(Cl)cc3[nH]2)CC1 [Compound I-3-108]	human AMPK α1β1γ1 enzyme (Homo sapiens, UniProt Q13131+Q9Y478)	%	291
O=C(O)[C@H]1C[C@H](Oc2nc3nc(-c4ccc(N5CCOCC5)cc4)c(Cl)cc3[nH]2)C1 [Compound I-2-118]	human AMPK α1β1γ1 enzyme (Homo sapiens, UniProt Q13131+Q9Y478)	%	194
CC(C)(C(=O)O)[C@H]1CC[C@H](Oc2nc3nc(-c4c(F)cc(N5CCOCC5)cc4F)ccc3[nH]2)CC1 [Compound I-3-40]	human AMPK α1β1γ1 enzyme (Homo sapiens, UniProt Q13131+Q9Y478)	%	244
CC(Oc1nc2nc(-c3ccc(C4=CCC(C(=O)O)CC4)cc3)c(Cl)cc2[nH]1)C(N)=O (stereo not shown) [Compound I-3-14]	human AMPK α1β1γ1 enzyme (Homo sapiens, UniProt Q13131+Q9Y478)	%	232
O=C(c1ccc(-c2ccc(-c3nc4nc(O[C@H]5CC[C@H](C(=O)O)CC5)[nH]c4cc3Cl)cc2)cc1)N1CCC(O)CC1 [Compound I-3-104]	human AMPK α1β1γ1 enzyme (Homo sapiens, UniProt Q13131+Q9Y478)	%	203

input: Specify measured Emax for CN1CCc2cc(-c3nc4nc(O[C@H]5CC[C@](O)(C(C)(C)C(=O)O)CC5)[nH]c4cc3Cl)ccc21 [Compound I-3-52] .
output: 400

input: Specify measured Emax for CC(=O)NC1CCN(c2ccc(-c3nc4nc(OC5CCC(C(C)(C)C(=O)O)CC5)[nH]c4cc3Cl)cc2)CC1 (stereo not shown) [Compound I-3-65] .
output: 233

====

Documented Emax across a set of compounds
Target: human AMPK α1β1γ1 enzyme (Homo sapiens, UniProt Q13131+Q9Y478)
Construct: purchased Carna Biosciences, Inc
Test: Evaluation of AMPK activator, Test Example 1 (mobility-shift kinase assay, FL-Peptide 7)
Format: biochemical
Conditions: human AMPK α1β1γ1, relative to control (100%); read-out: Emax (maximum rate of increase in activity within the measurement range)
Procedure: The obtained liquid was left to stand for 10 minutes. The obtained liquid was allowed to react at 25° C. for 2 hours, and 10 μl of 20 mM EDTA was then added thereto to stop the reaction. To detect phosphorylated fluorescent substrates, the reaction liquid was applied to a measuring device, LabChip EZ Reader II manufactured by Caliper Life Science, Inc., for detecting fluorescence by using differences in mobility due to differences in charge. […]
Give the quantity in %, number only.

compound	readout_value
CC(C)(C(=O)O)[C@H]1CC[C@H](Oc2nc3nc(-c4ccc(-c5ccc(C(N)=O)cc5)cc4)c(Cl)cc3[nH]2)CC1	300
NC(=O)c1ccc(-c2ccc(-c3nc4nc(O[C@H]5CC[C@H](C(=O)O)CC5)[nH]c4cc3Cl)cc2)cc1	216
CN(C)C(=O)[C@H]1C[C@@H](Oc2nc3nc(-c4ccc(-c5ccc(C(=O)O)cc5)cc4)c(Cl)cc3[nH]2)C1	287
CN1CCC(Oc2nc3nc(-c4ccc(N5CCOCC5)cc4)c(Cl)cc3[nH]2)CC1	226
O=C(O)c1ccc(-c2ccc(-c3nc4nc(O[C@H]5C[C@@H](C(=O)N6CC(O)C6)C5)[nH]c4cc3Cl)cc2)cc1	260
CC(C)(C(=O)O)[C@H]1CC[C@H](Oc2nc3nc(-c4ccc(C5=CCN(C(=O)CO)CC5)cc4)c(Cl)cc3[nH]2)CC1	320

input: # return Emax of `CC(C)(C(=O)O)[C@]1(F)CC[C@@H](Oc2nc3nc(-c4ccc(N5CCOCC5)cc4)c(Cl)cc3[nH]2)CC1` (system: human AMPK α1β1γ1 enzyme (Homo sapiens, UniProt Q13131+Q9Y478))
output: 310

input: # return Emax of CC(Oc1nc2nc(-c3ccc(N4CCOCC4)cc3)c(Cl)cc2[nH]1)c1noc(=O)[nH]1 (centres unmarked) (system: human AMPK α1β1γ1 enzyme (Homo sapiens, UniProt Q13131+Q9Y478))
output: 231

Just for reference, patent US10093670B2 is where these values come from.
